test system: P388 leukemia ip, CD2F1 mice, survival T/C; assay: NCI In Vivo Anticancer Drug Screen. Data for tumor model P388 Leukemia (intraperitoneal) in CD2F1 (CDF1) mice; settings: endpoint: median survival time; dose: 60.0 mg/kg/injection; schedule: Q01DX005 (ip); vehicle: saline with Tween-80; higher = longer survival
Inconclusive results and toxic doses are left out.

[
  {
    "COMPOUND": "C=CCC1CCC/C1=N\\O (configuration not stated)",
    "T/C": "105 % of control"
  },
  {
    "COMPOUND": "CS(C)=C1C(=O)C(=O)C(=S(C)C)C(=O)C1=O",
    "T/C": "107 % of control"
  },
  {
    "COMPOUND": "Cc1ncc(/C=N/O)n1Cc1ccccc1",
    "T/C": "99 % of control"
  },
  {
    "COMPOUND": "[Se]=[Hf]=[Se]",
    "T/C": "97 % of control"
  },
  {
    "COMPOUND": "C[C@@]1(CO)CCc2c(c3ccccc3oc2=O)O1",
    "T/C": "94 % of control"
  },
  {
    "COMPOUND": "O=C1c2sccc2[C@H](NC(=O)C(F)(F)F)[C@@H]1Cl",
    "T/C": "100 % of control"
  },
  {
    "COMPOUND": "O=C1NC(=O)C2(N1)C1CCCC2C(c2ccccc2)NC1c1ccccc1 (configuration not stated)",
    "T/C": "96 % of control"
  }
]

----------
system: P388 leukemia ip, CD2F1 mice, survival T/C; test: NCI In Vivo Anticancer Drug Screen. Data for tumor model P388 Leukemia (intraperitoneal) in CD2F1 (CDF1) mice; conditions: endpoint: median survival time; dose: 12.5 mg/kg/injection; schedule: Q01DX005 (ip); vehicle: saline
Inconclusive results and toxic doses are left out. Rule for the calls: active = survival T/C of 150% or more; inactive = T/C below 125% in these data.
Classes used: active, inactive

[
  {
    "MOLECULE": "CN1C(=O)C(O)(C2=C3OCOC3=CC(=O)C2=O)c2ccccc21 (stereo not given)",
    "CAT": "inactive"
  },
  {
    "MOLECULE": "Nc1ncn(C2OC(CO)C(O)C2O)c(=O)n1 (stereo not given)",
    "CAT": "active"
  },
  {
    "MOLECULE": "O=C1NC(=O)C2(CCC(O)C2)c2cc[n+]([O-])cc21 (stereo not given)",
    "CAT": "inactive"
  },
  {
    "MOLECULE": "C=Cc1ccccc1 (tested in a mixture with another compound)",
    "CAT": "inactive"
  },
  {
    "MOLECULE": "NC(Cc1ccc[se]1)C(=O)O (stereo not given)",
    "CAT": "inactive"
  }
]

----------
System: P388 leukemia ip, CD2F1 mice, survival T/C
Experiment: NCI In Vivo Anticancer Drug Screen. Data for tumor model P388 Leukemia (intraperitoneal) in CD2F1 (CDF1) mice
Details: endpoint: median survival time; dose: 6.25 mg/kg/injection; schedule: Q01DX009 (ip); vehicle: saline; higher = longer survival
Description: The antitumor activity of compounds was measured in mice bearing transplantable tumors. Survival or tumor size were measured and the results are expressed as the measurement made in the treated group (T) divided by the measurement made in the vehicle treated control group (C). The tumor model used in this assay is P388 Leukemia (intraperitoneal) in CD2F1 (CDF1) mice
Toxic doses and inconclusive results are not listed.

[
  {
    "COMPOUND": "CC(CNC(=O)CCOS(C)(=O)=O)CNC(=O)CCOS(C)(=O)=O",
    "T/C": "105 % of control"
  },
  {
    "COMPOUND": "C1CN2CN3CCN(CN1C3)C2",
    "T/C": "108 % of control"
  },
  {
    "COMPOUND": "SC1(S)CN2CCC1CC2",
    "T/C": "104 % of control"
  },
  {
    "COMPOUND": "COc1ccc2c(c1)OC1CC2NC(N)=N1 (configuration not stated)",
    "T/C": "100 % of control"
  },
  {
    "COMPOUND": "CC(=O)SC1C(=O)N(C)C(SC(C)=O)C(=O)N1C (configuration not stated)",
    "T/C": "107 % of control"
  },
  {
    "COMPOUND": "CC(O)C([NH-])C(=O)O.CC([NH-])C(=O)O.[Cu+2] (configuration not stated)",
    "T/C": "94 % of control"
  },
  {
    "COMPOUND": "CCCCC(NC(=O)CC)C(=O)O (configuration not stated)",
    "T/C": "107 % of control"
  }
]
